Molecular target: human TLR8 (Homo sapiens)
Sequence (Q9NR97 27-1041): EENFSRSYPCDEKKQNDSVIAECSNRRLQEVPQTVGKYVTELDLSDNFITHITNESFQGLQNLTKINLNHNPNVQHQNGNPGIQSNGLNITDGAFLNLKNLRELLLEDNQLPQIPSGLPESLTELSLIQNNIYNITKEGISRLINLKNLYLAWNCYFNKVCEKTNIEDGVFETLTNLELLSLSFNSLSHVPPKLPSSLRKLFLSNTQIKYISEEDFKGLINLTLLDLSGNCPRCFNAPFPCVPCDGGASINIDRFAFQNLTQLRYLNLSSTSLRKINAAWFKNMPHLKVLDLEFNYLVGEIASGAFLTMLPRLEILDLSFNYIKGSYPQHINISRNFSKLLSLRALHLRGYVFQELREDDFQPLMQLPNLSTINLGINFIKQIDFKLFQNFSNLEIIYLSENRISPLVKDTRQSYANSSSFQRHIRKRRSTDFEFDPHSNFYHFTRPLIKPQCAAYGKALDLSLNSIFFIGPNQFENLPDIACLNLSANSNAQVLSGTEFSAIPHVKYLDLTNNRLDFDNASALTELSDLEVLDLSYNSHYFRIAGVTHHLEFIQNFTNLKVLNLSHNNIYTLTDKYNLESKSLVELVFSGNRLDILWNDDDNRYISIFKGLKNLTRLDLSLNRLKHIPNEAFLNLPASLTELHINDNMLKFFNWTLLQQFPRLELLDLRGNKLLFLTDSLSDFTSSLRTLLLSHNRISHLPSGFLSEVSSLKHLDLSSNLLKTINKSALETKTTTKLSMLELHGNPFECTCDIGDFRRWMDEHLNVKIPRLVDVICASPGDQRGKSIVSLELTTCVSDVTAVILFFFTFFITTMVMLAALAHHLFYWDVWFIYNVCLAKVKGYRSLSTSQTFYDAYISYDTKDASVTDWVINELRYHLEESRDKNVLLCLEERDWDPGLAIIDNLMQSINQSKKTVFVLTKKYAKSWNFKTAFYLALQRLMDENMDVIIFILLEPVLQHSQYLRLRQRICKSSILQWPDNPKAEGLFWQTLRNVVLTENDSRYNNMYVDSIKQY
Test: HEK293-Blue-hTLR-8 cells assay
Details: HEK293-Blue-hTLR8 cells, R848 stimulation, 20 hrs, SEAP reporter; read-out: HEK/hTLR8 IC50
Mark Criterion met only when IC50 stays strictly below 20 nM. Values equal to the cut-off are Criterion not met.

# count of solved cases: 5
C[C@@H]1CN(c2ccc(C#N)c3ncccc23)C[C@H](CN2CC(n3ncc4c3C[C@H](C)NC4)C2)O1 ... Criterion met
C[C@@H]1Cc2cnn(C3CN(C[C@H]4CN(c5ccc(C#N)c6ncccc56)C[C@@H](C)O4)C3)c2CN1 (single isomer, unassigned) ... Criterion met
C[C@@H]1CN(c2ccc(C#N)c3ncccc23)C[C@H](CN2CC(n3cc4c(n3)CCN[C@@H]4C)C2)O1 ... Criterion not met
C[C@@H]1CN(c2ccc(C#N)c3ncccc23)C[C@H](CN2CC(n3cc4c(n3)CNC4)C2)O1 ... Criterion met
C[C@@H]1CN(c2ccc(C#N)c3ncccc23)C[C@H](CN2CC(n3cc4c(n3)[C@H](C)CNC4)C2)O1 (single isomer, unassigned) ... Criterion met

Below: the item to evaluate.
Q. State whether 20 nM exceeds IC50 recorded for `C[C@@H]1CN(c2ccc(C#N)c3ncccc23)C[C@H](CN2CC(n3cc4c(n3)C[C@H](C)NC4)C2)O1` .
A. Criterion not met

====

Target: human TLR8 (Homo sapiens)
Assay: HEK293-Blue-hTLR-8 cells assay
Details: HEK293-Blue-hTLR8 cells, R848 stimulation, 20 hrs, SEAP reporter; read-out: HEK/hTLR8 IC50
Value Type: IC50 (nM)
Report the figure in nM without appending any unit label.

Please review the following examples before continuing.
C[C@@H]1CN(c2ccc(C#N)c3ncccc23)C[C@H](CN2CC(n3cc4c(n3)[C@H](C)NCC4)C2)O1 (single isomer, unassigned) ... 16
C[C@@H]1CN(c2ccc(C#N)c3ncccc23)C[C@H](CN2CCC(n3ncc4c3CCNC4)CC2)O1 ... 25
CCN1CCc2cn(C3CN(C[C@H]4CN(c5ccc(C#N)c6ncccc56)C[C@@H](C)O4)C3)nc2C1 ... 5
C[C@@H]1CN(c2ccc(C#N)c3ncccc23)C[C@H](CN2CC(n3ncc4c3CCNC4)C2)O1 ... 17

Kindly note the recorded IC50 for `Cc1c2c(nn1C1CN(C[C@H]3CN(c4ccc(C#N)c5ncccc45)C[C@@H](C)O3)C1)CNCC2` , which is 34

====

Target: human TLR7 (Homo sapiens)
Sequence (Q9NYK1 27-1049): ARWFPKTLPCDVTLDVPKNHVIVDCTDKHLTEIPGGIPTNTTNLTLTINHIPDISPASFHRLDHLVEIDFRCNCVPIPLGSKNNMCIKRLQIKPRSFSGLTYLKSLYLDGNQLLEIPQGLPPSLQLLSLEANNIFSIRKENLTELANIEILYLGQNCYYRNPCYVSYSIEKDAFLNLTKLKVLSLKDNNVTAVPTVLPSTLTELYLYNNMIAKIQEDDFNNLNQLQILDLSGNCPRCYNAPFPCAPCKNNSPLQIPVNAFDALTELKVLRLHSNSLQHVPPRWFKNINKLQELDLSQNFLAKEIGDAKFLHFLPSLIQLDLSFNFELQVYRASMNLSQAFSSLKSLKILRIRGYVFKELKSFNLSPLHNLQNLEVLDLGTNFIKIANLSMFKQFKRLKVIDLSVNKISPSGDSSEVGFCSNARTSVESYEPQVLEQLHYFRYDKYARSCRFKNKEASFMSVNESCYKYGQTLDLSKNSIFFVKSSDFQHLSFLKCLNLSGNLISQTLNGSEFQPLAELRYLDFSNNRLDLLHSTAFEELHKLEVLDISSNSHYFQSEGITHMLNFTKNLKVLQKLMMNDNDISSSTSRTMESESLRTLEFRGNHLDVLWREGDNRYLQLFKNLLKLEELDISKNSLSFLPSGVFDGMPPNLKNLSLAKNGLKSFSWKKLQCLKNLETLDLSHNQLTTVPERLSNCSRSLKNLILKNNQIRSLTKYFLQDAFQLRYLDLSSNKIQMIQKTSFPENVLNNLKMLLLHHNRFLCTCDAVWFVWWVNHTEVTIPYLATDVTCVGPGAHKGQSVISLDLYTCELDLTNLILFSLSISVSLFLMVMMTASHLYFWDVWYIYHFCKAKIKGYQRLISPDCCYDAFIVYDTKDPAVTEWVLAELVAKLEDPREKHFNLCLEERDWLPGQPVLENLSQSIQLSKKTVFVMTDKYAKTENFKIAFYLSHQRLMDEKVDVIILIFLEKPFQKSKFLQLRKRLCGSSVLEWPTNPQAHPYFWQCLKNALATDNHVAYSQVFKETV
Assay: HEK293-Blue-hTLR-7 cells assay
Conditions: HEK293-Blue-hTLR7 cells, R848 stimulation, 20 hrs, SEAP reporter; read-out: HEK/hTLR7 IC50
Protocol: HEK293-Blue-hTLR-7 cells assay: A stable HEK293-Blue-hTLR-7 cell line was purchased from InvivoGen (Cat. #: hkb-htlr7, San Diego, Calif., USA). […] The cell culture supernatant SEAP reporter activity was determined using QUANTI-Blue™ kit (Cat. #: rep-qb1, Invivogen, San Diego, Ca, USA) at a wavelength of 640 nm, a detection medium that turns purple or blue in the presence of alkaline phosphatase. […]
Value Type: pIC50
Scale: pIC50 equals -log10([C]), with [C] in mol/L.

C[C@@H]1CN(c2ccc(C#N)c3ncccc23)C[C@H](CN2CC(n3cc4c(n3)CN(C)CC4)C2)O1 [Example 5] ... 8.40
C[C@@H]1CN(c2ccc(C#N)c3ncccc23)C[C@H](CN2CC(n3cc4c(n3)CNC4)C2)O1 [Example 11] ... 7.77
CCN1CCc2cnn(C3CN(C[C@H]4CN(c5ccc(C#N)c6ncccc56)C[C@@H](C)O4)C3)c2C1 [Example 6] ... 7.92
C[C@@H]1CN(c2ccc(C#N)c3ncccc23)C[C@H](CN2CC(n3ncc4c3CNCC4)C2)O1 [Example 3] ... 8.52
Cc1nn(C2CN(C[C@H]3CN(c4ccc(C#N)c5ncccc45)C[C@@H](C)O3)C2)c2c1CNCC2 [Example 12] ... 7.82
C[C@@H]1CN(c2ccc(C#N)c3ncccc23)C[C@H](CN2CC(n3cc4c(n3)CCN[C@H]4C)C2)O1 [Example 23] ... 7.89
C[C@@H]1Cc2cn(C3CN(C[C@H]4CN(c5ccc(C#N)c6ncccc56)C[C@@H](C)O4)C3)nc2CN1 (single isomer, unassigned) [Example 30] ... 8.30
C[C@@H]1CN(c2ccc(C#N)c3ncccc23)C[C@H](CN2CC(n3ncc4c3CNC4)C2)O1 [Example 10] ... 7.80
C[C@@H]1CN(c2ccc(C#N)c3ncccc23)C[C@H](CN2CCC(n3ncc4c3CCNC4)CC2)O1 [Example 35] ... 8.30
C[C@@H]1CN(c2ccc(C#N)c3ncccc23)C[C@H](CN2CC(n3cc4c(n3)CN[C@@H](C)C4)C2)O1 (single isomer, unassigned) [Example 29] ... 8.10

Kindly note the recorded pIC50 for C[C@@H]1CN(c2ccc(C#N)c3ncccc23)C[C@H](CN2CC(n3cc4c(n3)[C@H](C)NCC4)C2)O1 (single isomer, unassigned) [Example 34] , which is 8.22

Kindly note the recorded pIC50 for C[C@@H]1Cc2cnn(C3CN(C[C@H]4CN(c5ccc(C#N)c6ncccc56)C[C@@H](C)O4)C3)c2CN1 (single isomer, unassigned) [Example 28] , which is 8.30

Kindly note the recorded pIC50 for CCN1CCc2cn(C3CN(C[C@H]4CN(c5ccc(C#N)c6ncccc56)C[C@@H](C)O4)C3)nc2C1 [Example 7] , which is 8.10

Kindly note the recorded pIC50 for C[C@@H]1Cc2c(cnn2C2CN(C[C@H]3CN(c4ccc(C#N)c5ncccc45)C[C@@H](C)O3)C2)CN1 [Example 16] , which is 8.40

====

Biological target: hERG channel (Homo sapiens, UniProt Q12809)
Construct: expressed in transfected cells; host or cells: CHO (Chinese hamster ovary), CHOhERG
Sequence (Q12809 whole entry): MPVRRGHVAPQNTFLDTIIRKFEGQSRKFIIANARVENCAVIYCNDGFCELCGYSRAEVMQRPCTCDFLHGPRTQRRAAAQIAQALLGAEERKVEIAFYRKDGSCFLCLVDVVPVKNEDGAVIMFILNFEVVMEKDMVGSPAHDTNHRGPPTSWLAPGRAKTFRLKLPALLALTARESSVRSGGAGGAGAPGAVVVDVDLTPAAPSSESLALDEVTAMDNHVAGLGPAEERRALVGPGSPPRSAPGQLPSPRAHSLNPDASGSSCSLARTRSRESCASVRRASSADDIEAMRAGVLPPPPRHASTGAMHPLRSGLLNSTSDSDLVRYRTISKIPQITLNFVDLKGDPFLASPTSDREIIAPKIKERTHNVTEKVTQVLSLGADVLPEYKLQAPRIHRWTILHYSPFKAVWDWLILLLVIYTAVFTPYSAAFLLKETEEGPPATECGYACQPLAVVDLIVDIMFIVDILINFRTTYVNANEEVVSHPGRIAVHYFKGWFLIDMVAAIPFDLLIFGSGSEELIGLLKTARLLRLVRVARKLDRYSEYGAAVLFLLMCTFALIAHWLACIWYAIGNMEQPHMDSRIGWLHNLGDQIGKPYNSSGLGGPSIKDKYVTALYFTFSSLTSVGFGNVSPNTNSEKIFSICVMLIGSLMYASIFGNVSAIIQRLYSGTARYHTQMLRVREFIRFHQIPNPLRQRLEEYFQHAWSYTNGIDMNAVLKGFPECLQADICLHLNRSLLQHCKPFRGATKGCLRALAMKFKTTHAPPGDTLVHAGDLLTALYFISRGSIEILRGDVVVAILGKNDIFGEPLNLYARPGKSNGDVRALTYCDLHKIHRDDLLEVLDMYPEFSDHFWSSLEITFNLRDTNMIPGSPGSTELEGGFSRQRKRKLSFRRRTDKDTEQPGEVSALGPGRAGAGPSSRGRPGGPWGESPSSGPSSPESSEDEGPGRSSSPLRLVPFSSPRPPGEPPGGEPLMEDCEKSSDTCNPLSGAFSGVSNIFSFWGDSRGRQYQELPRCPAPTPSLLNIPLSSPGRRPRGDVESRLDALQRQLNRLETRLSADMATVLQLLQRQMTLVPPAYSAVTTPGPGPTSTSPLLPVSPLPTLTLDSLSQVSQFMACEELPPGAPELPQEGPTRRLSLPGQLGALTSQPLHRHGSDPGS
Assay: hERG channel inhibition assay (patch-clamp, CHOhERG cells)
Assay type: cell-based
Conditions: safety ratio; >30 suggests sufficient window
Value Type: hERG IC20/TLR8 IC50

C[C@@H]1CN(c2ccc(C#N)c3ncccc23)C[C@H](CN2CC(n3ncc4c3CNCC4)C2)O1 [Example 3] ... >1739.2

Kindly note the recorded hERG IC20/TLR8 IC50 for Cc1nn(C2CN(C[C@H]3CN(c4ccc(C#N)c5ncccc45)C[C@@H](C)O3)C2)c2c1CNCC2 [Example 12] , which is >226.8

Kindly note the recorded hERG IC20/TLR8 IC50 for C[C@@H]1Cc2c(cnn2C2CN(C[C@H]3CN(c4ccc(C#N)c5ncccc45)C[C@@H](C)O3)C2)CN1 [Example 16] , which is >641.0

Kindly note the recorded hERG IC20/TLR8 IC50 for C[C@@H]1CN(c2ccc(C#N)c3ncccc23)C[C@H](CN2CC(n3cc4c(n3)[C@@H](C)NCC4)C2)O1 (single isomer, unassigned) [Example 33] , which is >763.4

Kindly note the recorded hERG IC20/TLR8 IC50 for C[C@@H]1CN(c2ccc(C#N)c3ncccc23)C[C@H](CN2CC(n3ncc4c3CCNC4)C2)O1 [Example 1] , which is >584.4

Kindly note the recorded hERG IC20/TLR8 IC50 for C[C@@H]1CN(c2ccc(C#N)c3ncccc23)C[C@H](CN2CC(n3cc4c(n3)CNCC4)C2)O1 [Example 4] , which is >1162.8

Kindly note the recorded hERG IC20/TLR8 IC50 for COc1ccc(N2CCN(C[C@H]3CN(c4ccc(C#N)c5ncccc45)C[C@@H](C)O3)CC2)cc1 [Example R1, reference compound] , which is 6.2

Kindly note the recorded hERG IC20/TLR8 IC50 for C[C@@H]1Cc2cn(C3CN(C[C@H]4CN(c5ccc(C#N)c6ncccc56)C[C@@H](C)O4)C3)nc2CN1 (single isomer, unassigned) [Example 30] , which is >735.3

Kindly note the recorded hERG IC20/TLR8 IC50 for C[C@@H]1CN(c2ccc(C#N)c3ncccc23)C[C@H](CN2CC(n3cc4c(n3)CCNC4)C2)O1 [Example 2] , which is >538.4

Kindly note the recorded hERG IC20/TLR8 IC50 for C[C@@H]1CN(c2ccc(C#N)c3ncccc23)C[C@H](CN2CCC(n3ncc4c3CCNC4)CC2)O1 [Example 35] , which is >397.8

Kindly note the recorded hERG IC20/TLR8 IC50 for Cc1c2c(nn1C1CN(C[C@H]3CN(c4ccc(C#N)c5ncccc45)C[C@@H](C)O3)C1)CCNC2 [Example 13] , which is >222.2

Kindly note the recorded hERG IC20/TLR8 IC50 for C[C@@H]1CN(c2ccc(C#N)c3ncccc23)C[C@H](CN2CCC(n3cc4c(n3)CCNC4)CC2)O1 [Example 36] , which is 246.7
